Kindly state pIC50 for each of the entries shown.
Target: IGF1R (Homo sapiens)
Sequence (P08069 31-1367, species assumed): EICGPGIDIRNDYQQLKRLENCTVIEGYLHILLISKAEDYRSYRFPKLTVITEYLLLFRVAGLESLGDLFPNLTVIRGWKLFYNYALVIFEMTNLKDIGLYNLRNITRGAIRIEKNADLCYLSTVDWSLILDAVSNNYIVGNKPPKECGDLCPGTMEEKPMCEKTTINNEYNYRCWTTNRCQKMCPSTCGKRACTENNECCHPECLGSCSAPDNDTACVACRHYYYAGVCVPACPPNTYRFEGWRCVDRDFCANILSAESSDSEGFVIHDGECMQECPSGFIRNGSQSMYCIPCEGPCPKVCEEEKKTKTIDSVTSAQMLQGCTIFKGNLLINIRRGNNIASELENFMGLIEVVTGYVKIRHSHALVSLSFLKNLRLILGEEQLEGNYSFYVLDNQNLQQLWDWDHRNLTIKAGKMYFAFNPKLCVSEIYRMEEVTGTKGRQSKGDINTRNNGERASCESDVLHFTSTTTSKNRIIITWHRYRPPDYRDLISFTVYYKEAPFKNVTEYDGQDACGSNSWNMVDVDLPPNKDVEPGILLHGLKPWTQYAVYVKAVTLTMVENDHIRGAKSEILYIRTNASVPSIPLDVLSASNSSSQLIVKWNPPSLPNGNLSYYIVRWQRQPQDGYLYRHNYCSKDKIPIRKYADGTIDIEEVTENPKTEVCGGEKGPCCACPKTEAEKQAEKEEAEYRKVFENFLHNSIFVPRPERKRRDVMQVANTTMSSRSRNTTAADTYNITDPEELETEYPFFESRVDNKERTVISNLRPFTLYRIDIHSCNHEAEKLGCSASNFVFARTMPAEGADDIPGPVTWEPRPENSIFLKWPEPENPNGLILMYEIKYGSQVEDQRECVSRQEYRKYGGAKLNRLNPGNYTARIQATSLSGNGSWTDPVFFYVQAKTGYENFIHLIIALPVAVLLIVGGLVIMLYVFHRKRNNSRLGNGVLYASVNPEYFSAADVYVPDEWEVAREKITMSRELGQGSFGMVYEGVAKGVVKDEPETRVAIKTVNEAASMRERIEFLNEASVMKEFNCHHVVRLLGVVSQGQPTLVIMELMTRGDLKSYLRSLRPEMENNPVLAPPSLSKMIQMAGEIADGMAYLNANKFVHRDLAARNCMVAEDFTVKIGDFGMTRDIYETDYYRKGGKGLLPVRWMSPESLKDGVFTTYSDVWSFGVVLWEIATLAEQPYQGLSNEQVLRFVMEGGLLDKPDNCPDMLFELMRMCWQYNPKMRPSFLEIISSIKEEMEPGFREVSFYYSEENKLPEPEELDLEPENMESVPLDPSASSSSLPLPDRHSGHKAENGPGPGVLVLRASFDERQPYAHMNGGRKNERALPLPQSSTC
Assay: Kinase inhibition assay (mobility shift)
Type: biochemical
Description: Experiment 1 Kinase Inhibition Assay Mobility shift assays were performed to determine inhibitory activity of compounds against EGFR^Δ19del/T790M/C797S, EGFR WT and IGF1R kinases. The enzymatic reaction scheme is as follows: 1. Preparing 1*Kinase Buffer as follows: 2. […] 10. Reading the conversion rate with Caliper EZ Reader. [formula] • wherein, “Conversion % sample” is the conversion rate reading of the sample; […]
Expect pIC50 as a plain number equal to -log10 of the molar concentration.

For this molecule ( COc1cc(N2CCN(C)CC2)c(C)cc1Nc1ncc(Br)c(Nc2ccc3nc(C4CC4)ccc3c2P(C)(C)=O)n1 [Compound J-010] ), measured pIC50 is 6.85

Reported pIC50 of CCc1cc(Nc2ncc(Br)c(Nc3ccc4nccnc4c3P(C)(C)=O)n2)c(OC)cc1N1CCC(N2CCN(C)CC2)CC1 [Comparable example 1, reference compound] : 8.02

Short answer for COc1cc(-c2ccc(N3CCN(C)CC3)cc2)c(C)cc1Nc1ncc(Br)c(Nc2ccc3nc(C4CC4)ccc3c2P(C)(C)=O)n1 [Compound J-040] : pIC50 was 5.93

COc1cc(N2CCC(N3CCN(C)CC3)CC2)c(F)cc1Nc1ncc(Br)c(Nc2ccc3nc(C4CC4)ccc3c2P(C)(C)=O)n1 [Compound J-019] has a reported pIC50 of 6.65

molecule COc1cc(N2CCC(N3CCN(C)CC3)CC2)c(C)cc1Nc1ncc(Br)c(Nc2ccc3nc(C4CC4)ccc3c2P(C)(C)=O)n1 [Compound J-022] , pIC50 observed: 6.71

// sample COc1cc(Nc2ncc(Br)c(Nc3ccc4nc(C5CC5)ccc4c3P(C)(C)=O)n2)c(C2CC2)cc1N1CCC(N2CCN(C)CC2)CC1 [Compound J-024] , its pIC50 was 6.86

###

Target: EGFR WT (Homo sapiens)
Sequence (P00533 25-1210): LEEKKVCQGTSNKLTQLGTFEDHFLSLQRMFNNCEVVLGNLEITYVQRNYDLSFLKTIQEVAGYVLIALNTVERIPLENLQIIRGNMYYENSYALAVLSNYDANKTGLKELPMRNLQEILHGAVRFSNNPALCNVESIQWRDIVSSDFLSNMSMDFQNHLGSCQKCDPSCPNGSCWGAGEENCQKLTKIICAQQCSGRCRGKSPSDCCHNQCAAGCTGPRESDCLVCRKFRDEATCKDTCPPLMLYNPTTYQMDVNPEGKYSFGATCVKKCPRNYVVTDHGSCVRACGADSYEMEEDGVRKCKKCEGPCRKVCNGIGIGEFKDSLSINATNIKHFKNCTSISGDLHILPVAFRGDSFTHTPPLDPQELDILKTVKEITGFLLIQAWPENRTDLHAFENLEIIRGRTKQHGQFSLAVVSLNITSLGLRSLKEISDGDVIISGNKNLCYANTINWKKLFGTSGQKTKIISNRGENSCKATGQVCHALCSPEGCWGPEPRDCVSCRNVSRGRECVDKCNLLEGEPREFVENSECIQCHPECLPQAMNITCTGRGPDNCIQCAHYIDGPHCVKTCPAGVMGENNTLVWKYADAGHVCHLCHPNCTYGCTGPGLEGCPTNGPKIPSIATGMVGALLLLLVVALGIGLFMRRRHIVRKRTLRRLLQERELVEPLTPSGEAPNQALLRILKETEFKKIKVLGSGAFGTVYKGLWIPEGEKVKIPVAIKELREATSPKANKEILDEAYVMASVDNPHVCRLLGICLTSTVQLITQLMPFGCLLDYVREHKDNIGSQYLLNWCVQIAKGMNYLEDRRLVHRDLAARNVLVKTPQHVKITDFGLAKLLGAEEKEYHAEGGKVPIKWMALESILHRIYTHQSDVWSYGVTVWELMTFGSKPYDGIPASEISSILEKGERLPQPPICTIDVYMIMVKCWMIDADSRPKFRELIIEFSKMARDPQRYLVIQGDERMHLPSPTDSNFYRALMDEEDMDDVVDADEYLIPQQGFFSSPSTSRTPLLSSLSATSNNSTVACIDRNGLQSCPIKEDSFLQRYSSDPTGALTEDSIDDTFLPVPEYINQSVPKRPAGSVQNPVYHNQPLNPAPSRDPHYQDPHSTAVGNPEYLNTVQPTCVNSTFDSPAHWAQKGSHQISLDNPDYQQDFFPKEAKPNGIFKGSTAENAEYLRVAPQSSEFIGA
pIC50: −log10 of the molar value.
Could you label it true if measured pIC50 is 7 or higher, and false otherwise?

Request: Is pIC50 for CCc1cc(Nc2ncc(Br)c(Nc3ccc4nc(C5CC5)ccc4c3P(C)(C)=O)n2)c(C)cc1N1CCC(N2CCN(C)CC2)CC1 at or above 7?
Response: true

Request: Is it the case that COc1cc(N2CCN(C)CC2)c(C#N)cc1Nc1ncc(Br)c(Nc2ccc3nc(C4CC4)ccc3c2P(C)(C)=O)n1 has pIC50 reaching or exceeding 7?
Response: true

Request: Please indicate if the recorded pIC50 for CCc1cc(N2CCOCC2)c(OC)cc1Nc1ncc(Br)c(Nc2ccc3nc(C4CC4)ccc3c2P(C)(C)=O)n1 meets or exceeds 7.
Response: false

Request: Quick check, pIC50 >= 7? COc1cc(Nc2ncc(Br)c(Nc3ccc4nc(C5CC5)ccc4c3P(C)(C)=O)n2)c(C2CC2)cc1N1CCOCC1
Response: false

Request: Determine whether measured pIC50 meets or exceeds 7 for COc1cc(Nc2ncc(Br)c(Nc3ccc4nc(C5CC5)ccc4c3P(C)(C)=O)n2)c(C)cc1N1CCC(N2CCN(C)CC2)CC1
Response: true

###

Measurement Type: IC50 (nM)
The response must be a number in nM with no trailing unit.

Lab entry: IGF1R (Homo sapiens) assay, compound COc1cc(N2CCC(N3CCN(C)CC3)CC2)c(C)cc1Nc1ncc(Br)c(Nc2ccc3nc(C(C)C)ccc3c2P(C)(C)=O)n1 , IC50 = 298

Fill in: IGF1R (Homo sapiens) IC50 for C#Cc1ccc2c(P(C)(C)=O)c(Nc3nc(Nc4cc(C)c(N5CCC(N6CCN(C)CC6)CC5)cc4OC)ncc3Br)ccc2n1 = 28.2

Record COc1cc(Nc2ncc(Br)c(Nc3ccc4nc(C5CC5)ccc4c3P(C)(C)=O)n2)cc(C)c1N1CCOCC1 has IGF1R (Homo sapiens) IC50 equal to 437

###

So I've got a bunch of molecules here, and I need their GI50 values.
Biological target: Ba/F3-Δ19del/T790M/C797S (Homo sapiens, UniProt P00533, T790M/C797S, cells depend on it, form not given)
Sequence (P00533 with tags, fused parts or gaps DEL746-750/T790M/C797S, form open): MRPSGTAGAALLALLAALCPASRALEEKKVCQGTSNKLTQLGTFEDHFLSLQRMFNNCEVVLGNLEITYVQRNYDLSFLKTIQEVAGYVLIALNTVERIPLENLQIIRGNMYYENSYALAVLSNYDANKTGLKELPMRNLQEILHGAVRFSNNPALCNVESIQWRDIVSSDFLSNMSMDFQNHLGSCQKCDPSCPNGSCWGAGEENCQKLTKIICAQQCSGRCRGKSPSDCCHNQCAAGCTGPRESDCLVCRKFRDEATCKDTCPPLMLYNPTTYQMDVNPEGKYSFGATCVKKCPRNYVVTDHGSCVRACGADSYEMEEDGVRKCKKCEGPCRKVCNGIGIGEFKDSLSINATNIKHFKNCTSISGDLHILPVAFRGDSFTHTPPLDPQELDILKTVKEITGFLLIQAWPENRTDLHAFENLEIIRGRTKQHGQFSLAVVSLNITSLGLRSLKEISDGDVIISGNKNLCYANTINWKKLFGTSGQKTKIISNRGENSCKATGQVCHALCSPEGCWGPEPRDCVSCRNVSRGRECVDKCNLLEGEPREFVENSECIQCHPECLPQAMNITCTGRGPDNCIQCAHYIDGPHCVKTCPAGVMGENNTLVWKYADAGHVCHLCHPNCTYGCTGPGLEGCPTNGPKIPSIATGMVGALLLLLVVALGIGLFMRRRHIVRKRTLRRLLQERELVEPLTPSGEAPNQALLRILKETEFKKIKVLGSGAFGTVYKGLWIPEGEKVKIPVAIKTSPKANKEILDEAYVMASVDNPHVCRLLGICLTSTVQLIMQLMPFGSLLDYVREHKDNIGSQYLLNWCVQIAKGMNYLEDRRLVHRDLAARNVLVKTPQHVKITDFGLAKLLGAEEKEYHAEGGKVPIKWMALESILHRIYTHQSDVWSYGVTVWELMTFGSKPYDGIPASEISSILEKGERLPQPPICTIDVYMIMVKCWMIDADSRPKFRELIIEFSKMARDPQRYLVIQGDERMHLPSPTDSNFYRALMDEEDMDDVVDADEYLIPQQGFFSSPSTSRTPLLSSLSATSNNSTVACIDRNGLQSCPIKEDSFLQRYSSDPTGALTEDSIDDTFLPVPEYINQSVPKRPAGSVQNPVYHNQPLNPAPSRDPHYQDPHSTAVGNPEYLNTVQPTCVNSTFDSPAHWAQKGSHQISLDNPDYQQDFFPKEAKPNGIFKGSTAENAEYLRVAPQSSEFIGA
Assay: Cell proliferation experiment (CellTiter Glo, 72 hours)
Type: cell-based
Details: read-out: Ba/F3/EGFR Δ19del/T790M/C797S IC50

Input COc1cc(N2CCN(C3CCCC3)CC2)c(-c2cnn(C)c2)cc1Nc1ncc(Br)c(Nc2ccc3nc(C4CC4)ccc3c2P(C)(C)=O)n1 [Compound J-055] . Output GI50: 12.4 nM

molecule CCc1cc(Nc2ncc(Br)c(Nc3ccc4nc(C#N)ccc4c3P(C)(C)=O)n2)c(OC)cc1N1CCC(N2CCN(C)CC2)CC1 [Compound J-016] , GI50 observed: 5.1 nM

Form field GI50, entry COc1cc(N2CCN(C)CC2)c(C#N)cc1Nc1ncc(Br)c(Nc2ccc3nc(C4CC4)ccc3c2P(C)(C)=O)n1 [Compound J-012] : 3.4 nM

What the record says about COc1cc(N(C)CCN(C)C)c(-c2cnn(C)c2)cc1Nc1ncc(Br)c(Nc2ccc3nc(C4CC4)ccc3c2P(C)(C)=O)n1 [Compound J-062] : GI50 is 1.4 nM

The recorded GI50 for COc1cc(N2CCN(c3ccncn3)CC2)c(-c2cnn(C)c2)cc1Nc1ncc(Br)c(Nc2ccc3nc(C4CC4)ccc3c2P(C)(C)=O)n1 [Compound J-060] is 2.3 nM

Entry COc1cc(NCC2CCN(C)CC2)c(-c2cnn(C)c2)cc1Nc1ncc(Br)c(Nc2ccc3nc(C4CC4)ccc3c2P(C)(C)=O)n1 [Compound J-052] , GI50 reported as 2.6 nM

Memo: COc1cc(Nc2ncc(Br)c(Nc3ccc4nc(C5CC5)ccc4c3P(C)(C)=O)n2)c(C)cc1N1CCC(OC)CC1 [Compound J-033] , reported GI50: 12.9 nM

GET /value?item= COc1ncc(N2CCN(c3cc(OC)c(Nc4ncc(Br)c(Nc5ccc6nc(C7CC7)ccc6c5P(C)(C)=O)n4)cc3-c3cnn(C)c3)CC2)cn1 [Compound J-044] &field=GI50 returns 1 nM

GET /value?item= COc1cc(NCC2CCOCC2)c(-c2cnn(C)c2)cc1Nc1ncc(Br)c(Nc2ccc3nc(C4CC4)ccc3c2P(C)(C)=O)n1 [Compound J-053] &field=GI50 returns 3.9 nM

Item: COc1cc(Nc2ncc(Br)c(Nc3ccc4nc(C5CC5)ccc4c3P(C)(C)=O)n2)c(C)cc1N1CCC(N(C)C)CC1 [Compound J-009] | GI50: 16.3 nM

The molecule identified as COc1cc(N2CCC(N3CCN(C)CC3)CC2)c(-c2ccn(C)c2)cc1Nc1ncc(Br)c(Nc2ccc3nc(C4CC4)ccc3c2P(C)(C)=O)n1 [Compound J-064] registered its GI50 at 1.1 nM

Lookup result for CCc1cc(N2CCOCC2)c(OC)cc1Nc1ncc(Br)c(Nc2ccc3nc(C4CC4)ccc3c2P(C)(C)=O)n1 [Compound J-003] ; measured GI50: 25.7 nM

molecule COc1cc(N2CCN(C)CC2)c(C)cc1Nc1ncc(Br)c(Nc2ccc3nc(C4CC4)ccc3c2P(C)(C)=O)n1 [Compound J-010] , GI50 observed: 11.5 nM

Data point: COc1cc(N2CCN(C)CC2)c(-c2cnn(C)c2)cc1Nc1ncc(Br)c(Nc2ccc3nc(C4CC4)ccc3c2P(C)(C)=O)n1 [Compound J-054] ; GI50 = 0.8 nM

// GI50 lookup, molecule = COc1cc(N2CCN(c3cccnc3)CC2)c(-c2cnn(C)c2)cc1Nc1ncc(Br)c(Nc2ccc3nc(C4CC4)ccc3c2P(C)(C)=O)n1 [Compound J-056] , result: 0.8 nM

Per the record, COc1cc(N2CCC(N3CCOCC3)CC2)c(-c2cnn(C)c2)cc1Nc1ncc(Br)c(Nc2ccc3nc(C4CC4)ccc3c2P(C)(C)=O)n1 [Compound J-059] has GI50 of 0.4 nM

COc1cc(N2CCC(N3CCN(C)CC3)CC2)c(-c2cnn(C)n2)cc1Nc1ncc(Br)c(Nc2ccc3nc(C4CC4)ccc3c2P(C)(C)=O)n1 [Compound J-046] has a reported GI50 of 1.2 nM

Lookup result for COc1cc(N2CCN(c3ccncc3)CC2)c(-c2cnn(C)c2)cc1Nc1ncc(Br)c(Nc2ccc3nc(C4CC4)ccc3c2P(C)(C)=O)n1 [Compound J-057] ; measured GI50: 3 nM

For COc1cc(N2CCC(N3CCN(C)CC3)CC2)c(C)cc1Nc1ncc(Br)c(Nc2ccc3nc(C4CC4)ccc3c2P(C)(C)=O)n1 [Compound J-022] the molecule record lists GI50 as 6.8 nM

Note to self: GI50 recorded for COc1cc(N2CCN(c3ccncc3)CC2)c(-c2cnn(C)n2)cc1Nc1ncc(Br)c(Nc2ccc3nc(C4CC4)ccc3c2P(C)(C)=O)n1 [Compound J-047] was 0.5 nM

# GI50 (molecule: COc1cc(Nc2ncc(Br)c(Nc3ccc4nc(C5CC5)ccc4c3P(C)(C)=O)n2)c(C(C)C)cc1N1CCOCC1 [Compound J-005] ) is 27 nM

GET /value?item= CCc1cc(Nc2ncc(Br)c(Nc3ccc4nccnc4c3P(C)(C)=O)n2)c(OC)cc1N1CCC(N2CCN(C)CC2)CC1 [Comparable example 1, reference compound] &field=GI50 returns 9 nM

Reported GI50 ( COc1cc(N2CCN(C3CCN(C)CC3)CC2)c(-c2cnn(C)c2)cc1Nc1ncc(Br)c(Nc2ccc3nc(C4CC4)ccc3c2P(C)(C)=O)n1 [Compound J-066] ) = 4.4 nM

Noted for COc1cc(N2CCC(N3CCN(C)CC3)CC2)c(C#N)cc1Nc1ncc(Br)c(Nc2ccc3nc(C4CC4)ccc3c2P(C)(C)=O)n1 [Compound J-021] : its GI50 reads 11.7 nM

From: patent US20230131025A1
